Source listed as patent US20260097133A1.

Test system: type D HBV surface antigen (HBsAg) reporter cell line
Test Description: sgRNA lentiviral library screening, HBsAg reporter cell line (NGS reads in GFP-negative cells)
Type: cell-based
Test Context: sgRNA in GFP-negative cell population, day 14 after transfection of EPIREG
Examples of substances with documented Log2 FC follow.

{"columns": ["Substance", "Log2 FC"],
 "data": [
  ["671 (guide GCAGCACAGCCTAGCAGCCA; listed as DNA, chemistry not fully specified) [compound 671]", 1.2918],
  ["1072 (guide TGTAGTATGCCCTGAGCCTG; listed as DNA, chemistry not fully specified) [compound 1072]", 1.1325],
  ["973 (guide TCGGAACGGCAGACGGAGAA; listed as DNA, chemistry not fully specified) [compound 973]", 1.056],
  ["985 (guide TCTGCCGTTCCGACCGACCA; listed as DNA, chemistry not fully specified) [compound 985]", 1.8695],
  ["211 (guide AGTCCCAAGCGACCCCGAGA; listed as DNA, chemistry not fully specified) [compound 211]", 1.5263],
  ["161 (guide AGATTAAAGGTCTTTGTACT; listed as DNA, chemistry not fully specified) [compound 161]", 1.8238],
  ["669 (guide GCAGATGAGAAGGCACAGAC; listed as DNA, chemistry not fully specified) [compound 669]", 1.1259],
  ["1028 (guide TGCCGTTCCGACCGACCACG; listed as DNA, chemistry not fully specified) [compound 1028]", 0.8922],
  ["88 (guide ACATCGTATCCATGGCTGCT; listed as DNA, chemistry not fully specified) [compound 88]", 1.2095],
  ["658 (guide GCAAATATACATCGTATCCA; listed as DNA, chemistry not fully specified) [compound 658]", 1.8084],
  ["998 (guide TCTTTGTACTAGGAGGCTGT; listed as DNA, chemistry not fully specified) [compound 998]", 2.1989],
  ["792 (guide GGTCTGGAGCAAACATTATC; listed as DNA, chemistry not fully specified) [compound 792]", 1.5074],
  ["641 (guide GATCGGCAGAGGAGCCGAAA; listed as DNA, chemistry not fully specified) [compound 641]", 1.58],
  ["593 (guide GAATCCCAGAGGATTGCTGG; listed as DNA, chemistry not fully specified) [compound 593]", 0.9124]
]}

====

Test system: type D HBV X protein (HBx) reporter cell line
Test Description: sgRNA lentiviral library screening, HBx reporter cell line (NGS reads in GFP-negative cells)
Type: cell-based
Test Context: sgRNA in GFP-negative cell population, day 14 after transfection of EPIREG
Recorded Endpoint: Log2 FC

{"columns": ["Substance", "Recorded Endpoint", "Observed Measurement"],
 "data": [
  ["792 (guide GGTCTGGAGCAAACATTATC; listed as DNA, chemistry not fully specified) [compound 792]", "Log2 FC", 5.6925],
  ["657 (guide GCAAACACTTGGCACAGACC; listed as DNA, chemistry not fully specified) [compound 657]", "Log2 FC", 3.2226],
  ["641 (guide GATCGGCAGAGGAGCCGAAA; listed as DNA, chemistry not fully specified) [compound 641]", "Log2 FC", 7.351]
]}

====

Examples of substances with documented Log2 FC follow.
Test system: type D HBV core antigen (HBcAg) reporter cell line
Test Description: sgRNA lentiviral library screening, HBcAg reporter cell line (NGS reads in GFP-negative cells)
Format: cell-based
Test Context: sgRNA in GFP-negative cell population, day 14 after transfection of EPIREG

{"columns": ["Substance", "Log2 FC"],
 "data": [
  ["62 (guide AATGTCAACGACCGACCTTG; listed as DNA, chemistry not fully specified) [compound 62]", 2.2035],
  ["113 (guide ACGATGTATATTTGCGGGAG; listed as DNA, chemistry not fully specified) [compound 113]", 2.0632],
  ["70 (guide ACAAGAGTTGCCTGAACTTT; listed as DNA, chemistry not fully specified) [compound 70]", 2.5329],
  ["981 (guide TCTAGAAGATCTCGTACTGA; listed as DNA, chemistry not fully specified) [compound 981]", 2.1673],
  ["491 (guide CGGAACGGCAGACGGAGAAG; listed as DNA, chemistry not fully specified) [compound 491]", 4.5168],
  ["872 (guide TAAAGACTGGGAGGAGTTGG; listed as DNA, chemistry not fully specified) [compound 872]", 3.0933],
  ["973 (guide TCGGAACGGCAGACGGAGAA; listed as DNA, chemistry not fully specified) [compound 973]", 3.9552],
  ["211 (guide AGTCCCAAGCGACCCCGAGA; listed as DNA, chemistry not fully specified) [compound 211]", 4.4175],
  ["327 (guide CACTGGCTGGGGCTTGGTCA; listed as DNA, chemistry not fully specified) [compound 327]", 1.8664],
  ["750 (guide GGCTTCCCGATACAGAGCTG; listed as DNA, chemistry not fully specified) [compound 750]", 4.6799],
  ["1028 (guide TGCCGTTCCGACCGACCACG; listed as DNA, chemistry not fully specified) [compound 1028]", 3.8548],
  ["127 (guide ACTGGCTGGGGCTTGGTCAT; listed as DNA, chemistry not fully specified) [compound 127]", 2.0792],
  ["591 (guide GAAGCGAAGTGCACACGGTC; listed as DNA, chemistry not fully specified) [compound 591]", 4.4134]
]}

====

Tested on: type D HBV core antigen (HBcAg) reporter cell line
Test Description: sgRNA lentiviral library screening, HBcAg reporter cell line (NGS reads in GFP-negative cells)
Assay type: cell-based
Test Context: sgRNA in GFP-negative cell population, day 14 after transfection of EPIREG
Decision: Log2 FC compared against 5; not below it gives yes, below it gives no.

{"columns": ["Substance", "Assigned Category"],
 "data": [
  ["641 (guide GATCGGCAGAGGAGCCGAAA; listed as DNA, chemistry not fully specified) [compound 641]", "yes"],
  ["601 (guide GACCAAGCCCCAGCCAGTGG; listed as DNA, chemistry not fully specified) [compound 601]", "no"],
  ["834 (guide GTCGGAACGGCAGACGGAGA; listed as DNA, chemistry not fully specified) [compound 834]", "no"],
  ["1025 (guide TGCCCAAGGTCTTACATAAG; listed as DNA, chemistry not fully specified) [compound 1025]", "no"],
  ["215 (guide AGTCTTTGAAGTATGCCTCA; listed as DNA, chemistry not fully specified) [compound 215]", "no"],
  ["1104 (guide TTCCCGATACAGAGCTGAGG; listed as DNA, chemistry not fully specified) [compound 1104]", "no"]
]}

====

Tested on: type D HBV X protein (HBx) reporter cell line
Test Description: sgRNA lentiviral library screening, HBx reporter cell line (NGS reads in GFP-negative cells)
Assay type: cell-based
Test Context: sgRNA in GFP-negative cell population, day 14 after transfection of EPIREG
Examples of substances with documented Log2 FC follow.

{"columns": ["Substance", "Log2 FC"],
 "data": [
  ["973 (guide TCGGAACGGCAGACGGAGAA; listed as DNA, chemistry not fully specified) [compound 973]", 6.3619],
  ["451 (guide CCTGCTGCGAGCAAAACAAG; listed as DNA, chemistry not fully specified) [compound 451]", 5.3958],
  ["658 (guide GCAAATATACATCGTATCCA; listed as DNA, chemistry not fully specified) [compound 658]", 4.7952],
  ["197 (guide AGGTCTGGAGCAAACATTAT; chemistry not given here) [compound 197]", 3.6817]
]}

====

System: type D HBV surface antigen (HBsAg) reporter cell line
Test Description: sgRNA lentiviral library screening, HBsAg reporter cell line (NGS reads in GFP-negative cells)
Type: cell-based
Test Context: sgRNA in GFP-negative cell population, day 14 after transfection of EPIREG

{"columns": ["Substance", "Log2 FC"],
 "data": [
  ["227 (guide ATAGAGTATTTGGTGTCTTT; listed as DNA, chemistry not fully specified) [compound 227]", 0.9275],
  ["27 (guide AACAAGAGATGATTAGGCAG; listed as DNA, chemistry not fully specified) [compound 27]", 1.3821],
  ["1025 (guide TGCCCAAGGTCTTACATAAG; listed as DNA, chemistry not fully specified) [compound 1025]", 1.4524],
  ["145 (guide AGACTGGGAGGAGTTGGGGG; listed as DNA, chemistry not fully specified) [compound 145]", 1.8314],
  ["668 (guide GCAGAGGTGAAAAAGTTGCA; listed as DNA, chemistry not fully specified) [compound 668]", 1.297],
  ["491 (guide CGGAACGGCAGACGGAGAAG; listed as DNA, chemistry not fully specified) [compound 491]", 2.6046]
]}
